test: Therapeutic index, ratio of IC50 for mouse RAW264.7 cells to IC50 for mefloquine-susceptible Plasmodium falciparum CDC Indochina 3 W2; type: cell-based; conditions: read-out: TI
Class (required): determined from selectivity ratio; valid ranges are low value (below 2), medium value (2 to below 3), high value (3 or more)

Below are worked cases with known answers.
COc1cccc(-c2c(OC)cc(NC(C)CCCN)c3nc(C(F)(F)F)cc(C)c23)c1.O=C(O)CCC(=O)O (configuration not stated); medium value
COc1cc(NC(C)CCCNC(=O)OC(C)(C)C)c2nc(C(F)(F)F)cc(C)c2c1-c1cccc(C)c1 (configuration not stated); high value
COc1cccc(-c2c(OC)cc(NC(C)CCCN)c3nc(OC)cc(C)c23)c1.O=C(O)CCC(=O)O (configuration not stated); high value

Now consider the entry below.
Query string: Class (by measured selectivity ratio) for COc1cc(NC(C)CCCNC(=O)OC(C)(C)C)c2nc(C(F)(F)F)cc(C)c2c1-c1ccc(C(F)(F)F)cc1 (configuration not stated)
Result string: high value
